B1: SNX8 (parent)
chain: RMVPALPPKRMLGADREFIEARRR

variants of: B1; experiment: protein stability index of a GFP-peptide fusion (GPS, HEK-293T) (PSI 1-6); higher = more stable; conditions: c terminus: a fixed tail appended;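 also: lentivirally expressed fusions sorted by FACS into six bins by GFP to DsRed ratio, PSI derived from sequencing read proportions per bin multiplied by bin number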
What protein stability index was measured for each of the following?

change=R10N measurement_name="protein stability index" meas_value=3.98
change=A5L measurement_name="protein stability index" meas_value=4
change=K9Y measurement_name="protein stability index" meas_value=3.95
change=R24T measurement_name="protein stability index" meas_value=3.95

Please supply protein stability index for each of the following items, keeping them in order.
1. E20T
2. E20K
3. R1W
4. I19G
5. R22K

Result block:
[3.99, 3.94, 1.94, 3.96, 4.09]
